Source listed as paper PMC3746001.

Target or test system: hpol ι (Homo sapiens)
Sequence (Q9UNA4 26-446): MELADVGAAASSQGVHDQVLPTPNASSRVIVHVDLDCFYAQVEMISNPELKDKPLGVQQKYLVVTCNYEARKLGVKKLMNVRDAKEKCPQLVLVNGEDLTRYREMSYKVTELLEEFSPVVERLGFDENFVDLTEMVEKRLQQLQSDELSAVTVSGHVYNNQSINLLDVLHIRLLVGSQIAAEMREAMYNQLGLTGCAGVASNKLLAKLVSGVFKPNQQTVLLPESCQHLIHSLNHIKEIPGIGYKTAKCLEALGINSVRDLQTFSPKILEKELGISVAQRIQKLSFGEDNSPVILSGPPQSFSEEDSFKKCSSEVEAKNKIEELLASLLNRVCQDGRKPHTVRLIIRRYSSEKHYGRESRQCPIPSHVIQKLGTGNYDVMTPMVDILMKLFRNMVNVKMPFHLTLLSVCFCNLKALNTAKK
Protocol summary: Fluorescence-based polymerase assay, hpol ι
Format: biochemical
Measurement kind: IC50

[ask] IC50 for O=C1NC(=S)NC(=O)C1=Cc1cn(C(=O)c2ccccc2Br)c2ccc(Cl)cc12 ?
[reply] ~80 µM
